Target: Cysteinyl leukotriene receptor 1 (Cavia porcellus, UniProt Q2NNR5)
Sequence (Q2NNR5 whole entry): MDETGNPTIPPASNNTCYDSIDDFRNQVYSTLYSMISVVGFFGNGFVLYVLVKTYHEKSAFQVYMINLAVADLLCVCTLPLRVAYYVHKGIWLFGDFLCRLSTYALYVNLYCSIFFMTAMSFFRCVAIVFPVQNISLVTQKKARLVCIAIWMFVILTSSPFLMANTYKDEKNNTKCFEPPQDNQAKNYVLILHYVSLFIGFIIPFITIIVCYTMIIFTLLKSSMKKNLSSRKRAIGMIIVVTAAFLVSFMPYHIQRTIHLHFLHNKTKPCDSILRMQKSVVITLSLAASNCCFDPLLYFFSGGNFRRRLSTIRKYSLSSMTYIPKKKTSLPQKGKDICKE
Experiment: Inhibitory concentration against [3H]Leukotriene D4 binding to guinea-pig lung membranes was determined; experiment 2
Type: tissue-based, Membrane
pIC50: −log10 of the molar value.
VALUE TYPE: pIC50

Solved entries (count: 2):
[
  {
    "MOLECULE": "C[C@H](CS[C@H](CCc1ccccc1C(C)(C)O)c1cccc(OCc2ccc3ccc(Cl)cc3n2)c1)C(=O)[O-].[Na+]",
    "pIC50": 8.40
  },
  {
    "MOLECULE": "CCC(CSC(CCc1ccccc1C(=O)O)c1cccc(OCc2ccc3ccc(Cl)cc3n2)c1)C(=O)[O-].[Na+] (configuration not stated)",
    "pIC50": 9.00
  }
]

A: CC(CSC(CCc1ccccc1C(C)(C)O)c1cccc(OCc2ccc3ccc(Cl)cc3n2)c1)C(=O)[O-].[Na+] (configuration not stated)
B: C[C@@H](CS[C@H](CCc1ccccc1C(C)(C)O)c1cccc(OCc2ccc3ccc(Cl)cc3n2)c1)C(=O)[O-].[Na+]
Which of the two items, A and B , has the greater recorded pIC50? Kindly give the label for the entry you pick.
B
(B: 9.52, A: 9.07)

a: CC(CSC(CCc1ccccc1[N+](=O)[O-])c1cccc(OCc2ccc3ccc(Cl)cc3n2)c1)C(=O)[O-].[Na+] (configuration not stated)
b: C[C@@H](CS[C@@H](CCc1ccccc1C(C)(C)O)c1cccc(OCc2ccc3ccc(Cl)cc3n2)c1)C(=O)[O-].[Na+]
Which of the two items, a and b , has the greater recorded pIC50? Kindly give the label for the entry you pick.
a
(a: 9.31, b: 8.15)

----------
target: Cysteinyl leukotriene receptor 1 (Cavia porcellus); assay: Inhibitory concentration against [3H]Leukotriene D4 binding to guinea-pig lung membranes was determined (Experiment 2); type: tissue-based, Membrane
VALUE TYPE: pIC50
In simple prose, pIC50 is minus the logarithm base ten of a concentration in moles per litre.

Output measured pIC50 for this item: CN(C)C(=O)CCSC(SCCC(=O)O)c1cccc(CCc2ccc3ccc(Cl)cc3n2)c1 (stereo unspecified)
7.44

----------
assay: Plasma clearance was estimated from the AUC after 5 mg/kg intravenous dosing in rats; type: ADME, organism-based; design: dose 5 mg/kg, route intravenous; conditions: rat
VALUE TYPE: clearance (mL/min/kg)

[
  {
    "COMPOUND": "O=C([O-])CCSC(CCc1ccccc1C(=O)N1CCCCC1)c1cccc(OCc2ccc3ccc(Cl)cc3n2)c1.[Na+] (stereo not drawn)",
    "VALUE TYPE": "clearance",
    "OBSERVED VALUE": 55
  },
  {
    "COMPOUND": "CCC(CSC(CCc1ccccc1C(N)=O)c1cccc(OCc2ccc3ccc(Cl)cc3n2)c1)C(=O)[O-].[Na+] (stereo not drawn)",
    "VALUE TYPE": "clearance",
    "OBSERVED VALUE": 58
  }
]

1: O=C([O-])CCSC(CCc1ccccc1)c1cccc(OCc2ccc3ccc(Cl)cc3n2)c1.[Na+] (stereo not drawn)
2: CC(CSC(CCc1ccccc1[N+](=O)[O-])c1cccc(OCc2ccc3ccc(Cl)cc3n2)c1)C(=O)[O-].[Na+] (stereo not drawn)
Which of the two items, 1 and 2 , has the greater recorded clearance? Kindly give the label for the entry you pick.
2
(2: 12 mL/min/kg, 1: 2.9 mL/min/kg)
